System: IgE of patient serum 3
Protocol Notes: ELISA inhibition, serum 3 pre-incubated with 1.25 µg/ml inhibitor; competitor: wt Bet v 1 adsorbed on wells
Quantity Measured: % inhibition of Bet v 1-IgE binding

Binder	Data Value
mixture of the single wt allergens (wt Bet v 1 and wt Mal d 1) (protein) chain 1: HHHHHHGVFNYETETTSVIPAARLFKAFILDGDNLFPKVAPQAISSVENIEGNGGPGTIKKISFPEGFPFKYVKDRVDEVDHTNFKYNYSVIEGGPIGDTLEKISNEIKIVATPDGGSILKINNKYHTKGDHEVKAEQIKASKEMGETLLRAVESYLLAHSDAYN chain 2: HHHHHHGVYTFENEFTSEIPPSRLFKAFVLDADNLIPKIAPQAIKQAEILEGDGGPGTIKKITFGEGSQYGYVKHKIDSVDEANYSYAYTLIEGDALTDTIEKVSYETKLVASGSGSIIKSISHYHTKGDVEIKEEHVKAGKEKAHGLFKLIESYLKGHPDAYN	90.9%
mixture of the two mutagenised allergens (mut Bet v 1-SEQ ID NO:6 and mut Mal d 1-SEQ ID NO:2) (protein) chain 1: HHHHHHGVFNYETETTSVIPAARLFKAFILDGDNLFPKVAPQAISSVENIEGNGGPGTIAKISFPEGFPFKYVKDRVDEVDHTNFKYNYSVIEGGPIGDTLEKISNEIKIVATPDGGSILAINNKYHTAGDHEVKAEQIKASKEMGETLLRAVESYLLAHSDAYN chain 2: HHHHHHGVYTFENEFTSEIPPSRLFKAFVLAADNLIPKIAPQAIKQAEILEGDGGPGTIKKITFGEGSQYGYVKHKIDSVDEAAYSYAYTLIEGDALTDTIEKVSYETKLVASGSGSIIKSISHYHTKGDVEIKEEHVKAGKEKAHGLFKLIESYLKGHPDAYN	52.3%
wild-type Bet v 1-Mal d 1 hybrid molecule (SEQ ID NO: 3) (protein) HHHHHHGVFNYETETTSVIPAARLFKAFILDGDNLFPKVAPQAISSVENIEGNGGPGTIKKISFPEGFPFKYVKDRVDEVDHTNFKYNYSVIEGGPIGDTLEKISNEIKIVATPDGGSILKINNKYHTKGDHEVKAEQIKASKEMGETLLRAVESYLLAHSDAYNEFGVYTFENEFTSEIPPSRLFKAFVLDADNLIPKIAPQAIKQAEILEGDGGPGTIKKITFGEGSQYGYVKHKIDSVDEANYSYAYTLIEGDALTDTIEKVSYETKLVASGSGSIIKSISHYHTKGDVEIKEEHVKAGKEKAHGLFKLIESYLKGHPDAYN	76.2%

Then this binder:
Problem: Which % inhibition of Bet v 1-IgE binding is reported for this binder? mutant Bet v 1-Mal d 1 hybrid molecule (SEQ ID NO: 4) (protein) HHHHHHGVFNYETETTSVIPAARLFKAFILDGDNLFPKVAPQAISSVENIEGNGGPGTIAKISFPEGFPFKYVKDRVDEVDHTNFKYNYSVIEGGPIGDTLEKISNEIKIVATPDGGSILAINNKYHTAGDHEVKAEQIKASKEMGETLLRAVESYLLAHSDAYNEFGVYTFENEFTSEIPPSRLFKAFVLAADNLIPKIAPQAIKQAEILEGDGGPGTIKKITFGEGSQYGYVKHKIDSVDEAAYSYAYTLIEGDALTDTIEKVSYETKLVASGSGSIIKSISHYHTKGDVEIKEEHVKAGKEKAHGLFKLIESYLKGHPDAYN
Result: 35.9%
